Assay Name: Solubility of the compound in PBS buffer at pH 7.4 by HPLC analysis
Type: physicochemical
Endpoint: solubility (µM)

[
  {
    "Molecule": "Cc1c(C(N)C(=O)OCCCO[N+](=O)[O-])cc(-c2ccc(S(C)(=O)=O)cc2)n1-c1ccc(F)cc1 (centres undefined)",
    "Measurement Units": "µM",
    "Reported": 80
  }
]

(I) Cc1c(CC(=O)OCCO[N+](=O)[O-])cc(-c2ccc(S(C)(=O)=O)cc2)n1-c1cccc(F)c1
(II) Cc1c(C(N)C(=O)OCCCCO[N+](=O)[O-])cc(-c2ccc(S(C)(=O)=O)cc2)n1-c1ccc(F)cc1 (centres undefined)
(III) Cc1c(CC(=O)OCCCO[N+](=O)[O-])cc(-c2ccc(S(C)(=O)=O)cc2)n1-c1cccc(F)c1
Rank items: key solubility, increasing. Give me the labels in the order the question wants.
III, I, II

###

Tested On: Prostaglandin G/H synthase 2 (Mus musculus)
Sequence (Q05769 whole entry): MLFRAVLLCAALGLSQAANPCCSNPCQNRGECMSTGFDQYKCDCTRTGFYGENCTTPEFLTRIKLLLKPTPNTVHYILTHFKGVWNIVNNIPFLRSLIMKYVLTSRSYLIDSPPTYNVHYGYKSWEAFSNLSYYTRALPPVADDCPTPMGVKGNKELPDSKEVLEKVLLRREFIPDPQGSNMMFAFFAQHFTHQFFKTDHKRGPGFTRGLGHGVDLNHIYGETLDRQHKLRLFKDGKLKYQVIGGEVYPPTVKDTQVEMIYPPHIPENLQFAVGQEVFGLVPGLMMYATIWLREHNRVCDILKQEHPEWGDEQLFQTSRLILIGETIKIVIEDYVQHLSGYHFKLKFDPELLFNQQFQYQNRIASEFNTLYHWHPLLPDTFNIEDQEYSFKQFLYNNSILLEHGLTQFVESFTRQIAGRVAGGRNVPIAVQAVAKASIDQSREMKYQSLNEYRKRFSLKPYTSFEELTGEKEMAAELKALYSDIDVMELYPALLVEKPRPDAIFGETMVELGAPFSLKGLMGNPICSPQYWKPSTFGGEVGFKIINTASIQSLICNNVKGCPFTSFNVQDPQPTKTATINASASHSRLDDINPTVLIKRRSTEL
Assay Name: Inhibition of COX2-mediated PGE2 production in LPS-induced mouse J774 cells by radioimmunoassay
pIC50: −log10 of the molar value.
Endpoint: pIC50

Before answering, review these 3 worked examples.
[
  {
    "Molecule": "Cc1c(C(N)C(=O)OCCCCO[N+](=O)[O-])cc(-c2ccc(S(C)(=O)=O)cc2)n1-c1cccc(F)c1 (stereo unspecified)",
    "pIC50": 5.85
  },
  {
    "Molecule": "Cc1c(C(N)C(=O)OCCCO)cc(-c2ccc(S(C)(=O)=O)cc2)n1-c1cccc(F)c1 (stereo unspecified)",
    "pIC50": 5.92
  },
  {
    "Molecule": "Cc1c(C(N)C(=O)OCCCCO)cc(-c2ccc(S(C)(=O)=O)cc2)n1-c1cccc(F)c1 (stereo unspecified)",
    "pIC50": 5.82
  }
]

(A) Cc1c(C(N)C(=O)OCCCO[N+](=O)[O-])cc(-c2ccc(S(C)(=O)=O)cc2)n1-c1cccc(F)c1 (stereo unspecified)
(B) Cc1c(C(N)C(=O)OCCCO)cc(-c2ccc(S(C)(=O)=O)cc2)n1-c1ccc(F)cc1 (stereo unspecified)
(C) Cc1c(C(N)C(=O)OCCCCO)cc(-c2ccc(S(C)(=O)=O)cc2)n1-c1ccc(F)cc1 (stereo unspecified)
Put the entries in order of pIC50, starting with the largest number. Lab note: record answer as labels in requested order.
C, B, A
(C: 6.66, B: 6.12, A: 5.82)

Reference for the values: ChEMBL document CHEMBL2151030
